Test system: RPMI-8226 leukemia
Assay: NCI tumour cell line growth inhibition, 48 h; in the data active = GI50 below about 0.43 µM; inactive = the rest
Your answer must be one of the following: active, inactive

Example entries and their recorded answers appear below.
compound=C[n+]1c(/C=C/c2c[nH]c3ccccc23)ccc2ccccc21 class=inactive
compound=COC1=CC(c2ccc[nH]2)=N/C1=C\c1[nH]c(C)c(CC(=O)OCc2ccccc2)c1CCC(=O)OCc1ccccc1 class=active
compound=O=C(COc1ccc(/C=C2\COc3ccccc3C2=O)cc1)Nc1nccs1 class=inactive
compound=N#Cc1c(NC(=O)NCc2ccccc2)sc2c1CCCC2 class=inactive

Query: Which outcome was entered for the compound `COc1ccc(N=Cc2c(O)ccc3c2oc2cc(Cl)c(O)c(Cl)c23)cc1` in this test?
Response: inactive

Query: Note, next up: `O=C1/C(=C\c2ccc(F)cc2)CN(C(=O)c2ccccc2)C/C1=C\c1ccc(F)cc1`
Response: active

Query: Note, next up: CC[C@@H]1[C@@H](C)O[C@@](O)([C@@H](C)[C@H](O)[C@H](C)[C@H]2OC(=O)/C=C/C=C/[C@H](C)[C@@H]([C@@H](C)[C@@H](O)[C@H](C)[C@@]3(O)C[C@@H](O[C@H]4C[C@@H](O)[C@H](O)C(C)O4)[C@H](CC)[C@@H](C)O3)OC(=O)/C=C/C=C/[C@@H]2C)C[C@H]1O[C@@H]1C[C@@H](O)[C@H](O)C(C)O1 (some centres undefined)
Response: active

Query: Note, next up: `CCOC(=O)c1ccc(Nc2sc(C(=O)c3ccc(Br)cc3)c(N)c2C#N)cc1`
Response: inactive

Query: Note, next up: O=C1c2[nH]cc(CNC3CN4CCC3CC4)c2C(=O)c2c1c(O)c1ccccc1c2O (centres undefined)
Response: inactive

----------
Consider the following compounds and their measured TGI readings.
System: NCI-H460 lung
Experiment: NCI tumour cell line growth inhibition, 48 h

Check out these entries, answers already filled in.
compound=c1ccc([CH2][Sn]([CH2]c2ccccc2)([O]c2cccc3cccnc23)[O]c2cccc3cccnc23)cc1 system_under_test="NCI-H460 lung" recorded_value="0.446 µM"
compound="CN1C(=O)CCC2[C@@H]3CC=C4C[C@@H](O)CC[C@]4(C)C3CC[C@@]21C (stereo not given in full)" system_under_test="NCI-H460 lung" recorded_value="> 100 µM"
compound=O=c1[nH]nc(Cc2ccc(Cl)cc2)n1/N=C/c1ccco1 system_under_test="NCI-H460 lung" recorded_value="> 100 µM"
compound=C[Si](C)(C)C#Cc1cc(-c2nc3ccccc3s2)ccc1N system_under_test="NCI-H460 lung" recorded_value="31.1 µM"
compound=CCc1c(CN)c(CC)c(CNC2=NCCN2)c(CC)c1CNC1=NCCN1 system_under_test="NCI-H460 lung" recorded_value="> 100 µM"
compound=N.N.NCCCCCN.O=C([O-])CCl.O=C([O-])CCl.O=C([O-])CCl.O=C([O-])CCl.[Pt+4].[Pt+4] system_under_test="NCI-H460 lung" recorded_value="18.6 µM"
compound=Cc1sc2[nH]c(=O)oc(=O)c2c1C system_under_test="NCI-H460 lung" recorded_value="> 100 µM"
compound=OCc1cc2c(ccc3sc4ccc5sc6ccc7ncccc7c6c5c4c32)s1 system_under_test="NCI-H460 lung" recorded_value="26.3 µM"
compound=O=C1NC(=S)N/C1=C\c1cc2c(=O)c3ccccc3sc2s1 system_under_test="NCI-H460 lung" recorded_value="> 100 µM"
compound=CN1CCC(COc2cnc(-c3cccc(Cn4nc(-c5cccc(C#N)c5)ccc4=O)c3)nc2)CC1 system_under_test="NCI-H460 lung" recorded_value="12.3 µM"

Query: Given the compound `O=[N+]([O-])c1ccc2nc(Cl)n[n+]([O-])c2c1` , what is its reported TGI?
Response: 43.3 µM

Query: Note, next up: `Nc1ccc2nc3c(nc2c1)C(=O)c1ccccc1-3`
Response: > 100 µM

Query: Note, next up: `CCOc1ccc(N/C(=C(/C(Cl)=C(/Cl)Nc2ccccc2)[N+](=O)[O-])n2nnc3ccccc32)cc1`
Response: > 100 µM

Query: Note, next up: CC(=O)N1N=C(c2ccc3ccccc3c2O)CC1c1cccs1 (stereo not given)
Response: > 100 µM

Query: Note, next up: CCOC(=O)C1SC(=Nc2cccc(Cl)c2C)N=C1C (stereo not given)
Response: > 100 µM

----------
System: ACHN renal
Assay: NCI tumour cell line growth inhibition, 48 h
Quantity name: TGI

Check out these entries, answers already filled in.
molecule="CC(C)C1OC(N)=C(C#N)C1(C#N)C#N (configuration not stated)" quantity_name=TGI recorded_value="> 100 µM"
molecule="C=C(C)C1CC/C(C)=C/CCC2(C)OC2CC/C(CO)=C\\C1O (configuration not stated)" quantity_name=TGI recorded_value="> 100 µM"
molecule=Cc1ccc(NC(=O)c2ccc(CN3CCN(C)CC3)cc2)cc1Nc1nccc(-c2cccnc2)n1 quantity_name=TGI recorded_value="72.9 µM"

Query: Given the molecule COc1ccc(C(CCC(C)=O)C(=O)O)cc1OC (configuration not stated) , what is its reported TGI?
Response: > 100 µM

Query: Note, next up: `CC1=NN(c2nc(N)nc(CBr)n2)C(C)(C)C1`
Response: 13.9 µM

Query: Note, next up: CC(C)(C)OC(=O)N[C@H]1CC(O)c2ccccc2N(CC(=O)O)C1=O (some centres not stated)
Response: > 100 µM

----------
System: OVCAR-4 ovarian
Experiment: NCI tumour cell line growth inhibition, 48 h
Quantity name: TGI

Check out these entries, answers already filled in.
compound="NC(CSCc1ccc(I)cc1)C(=O)O (stereo unspecified)" system_under_test="OVCAR-4 ovarian" quantity_name=TGI recorded_value="> 100 µM"
compound=Cc1cc(Cl)cc2c(N=Nc3ccc(S(N)(=O)=O)cc3)c(O)[nH]c12 system_under_test="OVCAR-4 ovarian" quantity_name=TGI recorded_value="> 25 µM"
compound=O=[N+]([O-])c1ccc(-c2cc(O)c3nc4ccccc4n3c2)cc1 system_under_test="OVCAR-4 ovarian" quantity_name=TGI recorded_value="> 100 µM"
compound=O=c1cc(-c2ccccc2)oc2ccc(OC/C(=N/O)c3ccccc3)cc12 system_under_test="OVCAR-4 ovarian" quantity_name=TGI recorded_value="> 50 µM"
compound="CC(=O)OCC(C)C1=C(OC(C)=O)C(=O)C2(C)C/C=C(/C)CC/C=C(\\C)CCC(OC(C)=O)C(C)CCC12 (stereo unspecified)" system_under_test="OVCAR-4 ovarian" quantity_name=TGI recorded_value="82.3 µM"

Let's switch to this compound now.
Query: Request: TGI, test system OVCAR-4 ovarian, entry NC1=NC2=c3ccccc3=C(c3cnccn3)C2(c2cnccn2)c2ccccc21 (stereo unspecified)
Response: > 100 µM

----------
Tested on: MCF7 breast
Experiment: NCI tumour cell line growth inhibition, 48 h; in the data active = GI50 below about 0.43 µM; inactive = the rest
Your answer must be one of the following: class 1 for active, class 0 for inactive

compound=CO/C=C/C(=O)c1cc2cnc3c(=N)cc(NC(=O)C(C)C)c([nH]1)c23 system_under_test="MCF7 breast" class="class 1"

Query: Which outcome was entered for the compound C=CCC(N[C@@H](CO)c1ccccc1)c1cn(Cc2ccccc2Cl)c(=O)n(Cc2ccccc2Cl)c1=O (stereo not given in full) in this test?
Response: class 0

Query: Note, next up: c1ccc(N2N=C(c3cccc(Nc4ccncc4)c3)CC2c2ccc3c(c2)OCO3)cc1 (stereo not given)
Response: class 0

Query: Note, next up: `Cn1cc(C2=C(c3ccccc3[N+](=O)[O-])C(=O)NC2=O)c2ccccc21`
Response: class 0

Query: Note, next up: `COc1cc([C@@H]2c3cc4c(c(O)c3C[C@H]3COC(=O)[C@@H]32)OCO4)cc(OC)c1OC`
Response: class 1

----------
Tested on: NCI-H226 lung
Experiment: NCI tumour cell line growth inhibition, 48 h
Consider the following compounds and their measured TGI readings.

Check out these entries, answers already filled in.
compound="COC(=O)/C(=N\\NC(N)=O)C(C(=O)C(=O)Nc1ccccc1OC)c1nc2ccc([N+](=O)[O-])cc2[nH]c1=O (stereo not given)" system_under_test="NCI-H226 lung" quantity_name=TGI recorded_value="> 100 µM"
compound=CCCCNc1nc2ccccc2c2c1ncn2CC(C)C system_under_test="NCI-H226 lung" quantity_name=TGI recorded_value="> 100 µM"
compound="Cc1ccc(S(=O)(=O)CN2C(=O)C(c3ccccc3)(c3ccccc3)C23OC(c2ccc(Cl)cc2)=CC3=O)cc1 (stereo not given)" system_under_test="NCI-H226 lung" quantity_name=TGI recorded_value="> 10 µM"

Query: Given the compound `C(/C=C/c1ccccc1)=Nc1ccc2c(c1)Cc1ccccc1-2` , what is its reported TGI?
Response: > 100 µM

Query: Note, next up: `CCOP(=O)(OCC)C(C)(C)N(C)/C(F)=N/C(F)(F)F`
Response: > 100 µM
